Would you mind telling me the reported logD of each entry?
assay-overview: Lipophilicity, logD of the compound at pH 7.4
Format: physicochemical
condition: buffer
Lab note: write the figure by itself, no unit.

query: Return reported logD; argument: "CC(C)(CNc1ccc(C(N)=O)cn1)c1ccccc1"
result: 3

query: Return reported logD; argument: "CC(C)(CNc1ccc(C(N)=O)cn1)c1cccc(N2CCNCC2)c1"
result: 1.6

query: Return reported logD; argument: "NC(=O)c1ccc(NC2(c3cccc(N4CCNCC4)c3)CC2)nc1"
result: 1.4

query: Return reported logD; argument: "CN(C(=O)Cn1c(C2CC2)cc2cc(C(N)=O)cnc21)[C@@H]1C[C@H]2CC[C@@H](C1)N2"
result: 0.2

====

assay-overview: Cytotoxicity against human HepG2 cells
Type: toxicity, cell-based
measurement-name: CC50

query: Return reported CC50; argument: "CC(C)(CNc1ccc(C(N)=O)cn1)c1cccc(CN)c1"
result: > 256 µg/mL

query: Return reported CC50; argument: "CC(C)(CNc1ccc(C(N)=O)cn1)c1ccccc1"
result: > 128 µg/mL

query: Return reported CC50; argument: "NC(=O)c1cnc2c(c1)cc(C1CC1)n2CC(=O)N1CCNCC1"
result: > 256 µg/mL

====

tested-system: tRNA (guanine-N(1)-)-methyltransferase (Escherichia coli (strain K12), UniProt P0A873)
assay-overview: Inhibition of Escherichia coli TrmD
pIC50: −log10 of the molar value.
Decide by pIC50: equal to or exceeding 7 means yes, less means no.

query: Item "C[C@@H](Nc1ccc(C(N)=O)cn1)c1ccccc1" with pIC50 of 7 or above?
result: no

query: Item "NC(=O)c1ccc2nc(N)sc2c1" with pIC50 of 7 or above?
result: no

query: Item NC(=O)c1ccc(NCc2cccc(N3CCNC(C(F)(F)F)C3)c2)nc1 (configuration not stated) with pIC50 of 7 or above?
result: no

query: Item "NC(=O)c1ccc(NC2(c3cccc(N4CCNCC4)c3)CC2)nc1" with pIC50 of 7 or above?
result: yes

query: Item "CN1CCN(C(=O)Cn2c(C3CC3)cc3cc(C(N)=O)cnc32)CC1" with pIC50 of 7 or above?
result: yes

query: Item "NC(=O)c1ccc(NCc2cccc(N3CCNCC3)c2)nc1" with pIC50 of 7 or above?
result: no

query: Item "NC(=O)c1ccc(N)cn1" with pIC50 of 7 or above?
result: no

query: Item "NC(=O)c1cnc2c(ccn2CC(=O)NC2CNC2)c1" with pIC50 of 7 or above?
result: no

query: Item "NC(=O)c1cnc2c(c1)cc(C1CC1)n2CC(=O)N1CCNCC1" with pIC50 of 7 or above?
result: yes

query: Item "CN(C(=O)Cn1ccc2cc(C(N)=O)cnc21)C1CCNCC1" with pIC50 of 7 or above?
result: no

query: Item "CC(C)(CNc1ccc(C(N)=O)cn1)c1cccc(N2CCNCC2)c1" with pIC50 of 7 or above?
result: yes

query: Item "OCc1cc(-c2cccs2)[nH]n1" with pIC50 of 7 or above?
result: no

query: Item "NCc1ccc(Cn2c(C3CC3)cc3cc(C(N)=O)cnc32)cc1" with pIC50 of 7 or above?
result: no

query: Item "NC(=O)c1ccc(N)cc1" with pIC50 of 7 or above?
result: no

query: Item "NC(=O)c1ccc2[nH]ccc2c1" with pIC50 of 7 or above?
result: no

query: Item "CN(C(=O)Cn1c(C2CC2)cc2cc(C(N)=O)cnc21)[C@@H]1C[C@H]2CC[C@@H](C1)N2" with pIC50 of 7 or above?
result: yes

query: Item "NCc1ccc(Cn2ccc3cc(C(N)=O)ccc32)cc1" with pIC50 of 7 or above?
result: no

query: Item "NC(=O)c1cnc2c(ccn2CC(=O)N2CCNCC2)c1" with pIC50 of 7 or above?
result: no

query: Item "CN1CCC(N(C)C(=O)Cn2c(C3CC3)cc3cc(C(N)=O)cnc32)CC1" with pIC50 of 7 or above?
result: yes

query: Item "NC(=O)c1ccc(NC2(c3ccccc3)CC2)nc1" with pIC50 of 7 or above?
result: no

query: Item NC(=O)c1ccc(N)nc1 [6-AMINONICOTINAMIDE] with pIC50 of 7 or above?
result: no

query: Item "CC(C)(Nc1ccc(C(N)=O)cn1)c1ccccc1" with pIC50 of 7 or above?
result: no

query: Item "CN(C(=O)Cn1c(C2CC2)cc2cc(C(N)=O)cnc21)C1CCNCC1" with pIC50 of 7 or above?
result: yes

query: Item "CC(C)(CNc1ccc(C(N)=O)cn1)c1ccccc1" with pIC50 of 7 or above?
result: yes

query: Item "NC(=O)c1cnc2c(ccn2CC(=O)NC2CCNCC2)c1" with pIC50 of 7 or above?
result: no

query: Item "NCc1ccc(Cn2ccc3cc(C(N)=O)cnc32)cc1" with pIC50 of 7 or above?
result: no

query: Item "CC(C)(CNc1ccc(C(N)=O)cn1)c1cccc(CN)c1" with pIC50 of 7 or above?
result: yes

query: Item "NCc1ccc(CNc2ccc(C(N)=O)cn2)cc1" with pIC50 of 7 or above?
result: no

query: Item "CNC(=O)Cn1ccc2cc(C(N)=O)cnc21" with pIC50 of 7 or above?
result: no

query: Item "NC(=O)c1ccc(NCc2ccccc2)nc1" with pIC50 of 7 or above?
result: no

query: Item "C[C@H](Nc1ccc(C(N)=O)cn1)c1ccccc1" with pIC50 of 7 or above?
result: no

query: Item "NCc1cccc(CNc2ccc(C(N)=O)cn2)c1" with pIC50 of 7 or above?
result: no

====

Would you mind telling me the reported IC50 of each entry?
tested-system: tRNA (guanine-N(1)-)-methyltransferase (Escherichia coli (strain K12), UniProt P0A873)
Sequence (P0A873 whole entry): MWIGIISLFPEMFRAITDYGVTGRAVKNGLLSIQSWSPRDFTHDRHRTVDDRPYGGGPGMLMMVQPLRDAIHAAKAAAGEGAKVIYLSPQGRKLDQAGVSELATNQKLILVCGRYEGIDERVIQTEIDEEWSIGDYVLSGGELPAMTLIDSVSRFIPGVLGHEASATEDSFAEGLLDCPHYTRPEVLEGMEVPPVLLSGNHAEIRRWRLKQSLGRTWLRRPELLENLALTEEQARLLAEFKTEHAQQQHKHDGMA
assay-overview: Inhibition of Escherichia coli TrmD
Express it in nM; write the number only.

query: Return reported IC50; argument: "NC(=O)c1cnc2c(c1)cc(C1CC1)n2CC(=O)N1CCNC(=O)C1"
result: 120

query: Return reported IC50; argument: "CC(C)(CNc1ccc(C(N)=O)cn1)c1cccc(NC2CNC2)c1"
result: 130

query: Return reported IC50; argument: "NC(=O)c1ccc(NC2CCCC2)nc1"
result: 110

query: Return reported IC50; argument: "CC(C)(C)CNc1ccc(C(N)=O)cn1"
result: 140

query: Return reported IC50; argument: "CC(C)[C@H]1CN(C(=O)Cn2c(C3CC3)cc3cc(C(N)=O)cnc32)CCN1"
result: 96

Values from ChEMBL document CHEMBL5247663
